Values were extracted from paper PMC2756588.

Molecular target: T1, Fus1, P11710
T1 sequence (P11710 432-512, looked up): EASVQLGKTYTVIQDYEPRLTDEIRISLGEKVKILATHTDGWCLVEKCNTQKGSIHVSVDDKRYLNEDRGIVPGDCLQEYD
Experiment: SPOT array
Conditions: median of control spots 1200
Recorded SPOT intensity values for a group of binders are listed next.
observable: SPOT intensity

[
  {
    "binder": "NFFRKKLGIPRKLKR",
    "observable": "SPOT intensity",
    "measured_result": 219
  },
  {
    "binder": "LPMNIQPDLPPRKIM",
    "observable": "SPOT intensity",
    "measured_result": 0
  },
  {
    "binder": "RLSFFFPLDPAYIRN",
    "observable": "SPOT intensity",
    "measured_result": 159
  },
  {
    "binder": "LPPPPPPPPPPPLPQ",
    "observable": "SPOT intensity",
    "measured_result": 0
  },
  {
    "binder": "RRRIAYPFYPFKKLG",
    "observable": "SPOT intensity",
    "measured_result": 14
  },
  {
    "binder": "HHNRRKPLEVYFKAT",
    "observable": "SPOT intensity",
    "measured_result": 565
  },
  {
    "binder": "VNFRRIPTGPDSPPT",
    "observable": "SPOT intensity",
    "measured_result": 0
  }
]
